Reference source for all entries: ChEMBL document CHEMBL4002546

experiment: Selectivity index, ratio of MLD50 for african green monkey BGM cells to IC50 for chloroquine-resistant Plasmodium falciparum W2 infected in human A+ erythrocytes by [3H]-hypoxanthine incorporation assay; format: toxicity, cell-based; settings: read-out: Selectivity Index

{"smiles record": "Cc1cc(Nc2ccc(Cl)cc2)n2nc(C(F)(F)F)cc2n1", "reading qualifier": "=", "selectivity ratio": 1.3}
{"smiles record": "Cc1cc(Nc2ccccc2)n2nc(C)cc2n1", "reading qualifier": "=", "selectivity ratio": 4.7}
{"smiles record": "Cc1cc(Nc2ccccc2C(F)(F)F)n2nc(C)cc2n1", "reading qualifier": "=", "selectivity ratio": 2.5}
{"smiles record": "COc1cc(Nc2cc(C)nc3cc(C)nn23)cc(OC)c1", "reading qualifier": "=", "selectivity ratio": 7}
{"smiles record": "Cc1cc(Nc2ccccc2C(F)(F)F)n2nc(C(F)(F)F)cc2n1", "reading qualifier": "=", "selectivity ratio": 4.6}
{"smiles record": "COc1cc(Nc2cc(C(F)(F)F)nc3cc(C)nn23)cc(OC)c1", "reading qualifier": ">", "selectivity ratio": 330}
{"smiles record": "Cc1cc(Nc2ccc(C(F)(F)F)cc2)n2nc(C)cc2n1", "reading qualifier": "=", "selectivity ratio": 5.4}
{"smiles record": "Cc1cc2nc(C(F)(F)F)cc(Nc3ccccc3)n2n1", "reading qualifier": "=", "selectivity ratio": 15.2}
{"smiles record": "Cc1cc(Nc2ccc3ccccc3c2)n2nc(C(F)(F)F)cc2n1", "reading qualifier": "=", "selectivity ratio": 468}
{"smiles record": "Cc1cc(Nc2ccc3ccccc3c2)n2nc(C)cc2n1", "reading qualifier": "=", "selectivity ratio": 79.6}
{"smiles record": "Cc1cc(Nc2ccc3ccccc3c2)n2nc(C(F)(F)F)nc2n1", "reading qualifier": "=", "selectivity ratio": 18.5}
{"smiles record": "Cc1cc(Nc2ccc(C(F)(F)F)cc2)n2nc(C(F)(F)F)cc2n1", "reading qualifier": "=", "selectivity ratio": 2.3}
{"smiles record": "Cc1cc2nc(C(F)(F)F)cc(Nc3ccc4ccccc4c3)n2n1", "reading qualifier": "=", "selectivity ratio": 234}
{"smiles record": "Cc1cc(Nc2ccc(Cl)cc2)n2nc(C)cc2n1", "reading qualifier": "=", "selectivity ratio": 22}

----------
system: Plasmodium berghei; assay: Antimalarial activity against Plasmodium berghei NK65 infected in mouse assessed as reduction in parasitemia at 5 mg/kg, po administered daily for 3 consecutive days starting 24 hrs post inoculum challenge containing parasitized red blood cells measured on day 11 by giemsa staining based microscopic method; format: functional
Listing of recorded inhibition in vivo at 5 mg/kg by entry.
observable: inhibition in vivo at 5 mg/kg (%)

{"smiles record": "Cc1cc(Nc2ccc3ccccc3c2)n2nc(C(F)(F)F)cc2n1", "unit string": "%", "experimental value": 59}
{"smiles record": "Cc1cc2nc(C(F)(F)F)cc(Nc3ccc4ccccc4c3)n2n1", "unit string": "%", "experimental value": 29}
{"smiles record": "CCN(CC)Cc1cc(Nc2ccnc3cc(Cl)ccc23)ccc1O", "unit string": "%", "experimental value": 100}
{"smiles record": "Cc1cc(Nc2ccc3ccccc3c2)n2nc(C)cc2n1", "unit string": "%", "experimental value": 65}

----------
system: Plasmodium berghei; experiment: Antimalarial activity against Plasmodium berghei NK65 infected in mouse assessed as reduction in parasitemia at 5 mg/kg, po administered daily for 3 consecutive days starting 24 hrs post inoculum challenge containing parasitized red blood cells measured on day 9 by giemsa staining based microscopic method; assay type: functional
Listing of recorded inhibition in vivo at 5 mg/kg by entry.

{"smiles record": "Cc1cc(Nc2ccc3ccccc3c2)n2nc(C(F)(F)F)cc2n1", "experimental target": "Plasmodium berghei", "unit string": "%", "inhibition in vivo at 5 mg/kg": 47}
{"smiles record": "CCN(CC)Cc1cc(Nc2ccnc3cc(Cl)ccc23)ccc1O", "experimental target": "Plasmodium berghei", "unit string": "%", "inhibition in vivo at 5 mg/kg": 100}
{"smiles record": "Cc1cc2nc(C(F)(F)F)cc(Nc3ccc4ccccc4c3)n2n1", "experimental target": "Plasmodium berghei", "unit string": "%", "inhibition in vivo at 5 mg/kg": 4}
{"smiles record": "Cc1cc(Nc2ccc3ccccc3c2)n2nc(C)cc2n1", "experimental target": "Plasmodium berghei", "unit string": "%", "inhibition in vivo at 5 mg/kg": 53}
